# experimental.target: AhR (Homo sapiens, UniProt P35869)
# Construct: endogenous in cells
# Sequence (P35869 11-848): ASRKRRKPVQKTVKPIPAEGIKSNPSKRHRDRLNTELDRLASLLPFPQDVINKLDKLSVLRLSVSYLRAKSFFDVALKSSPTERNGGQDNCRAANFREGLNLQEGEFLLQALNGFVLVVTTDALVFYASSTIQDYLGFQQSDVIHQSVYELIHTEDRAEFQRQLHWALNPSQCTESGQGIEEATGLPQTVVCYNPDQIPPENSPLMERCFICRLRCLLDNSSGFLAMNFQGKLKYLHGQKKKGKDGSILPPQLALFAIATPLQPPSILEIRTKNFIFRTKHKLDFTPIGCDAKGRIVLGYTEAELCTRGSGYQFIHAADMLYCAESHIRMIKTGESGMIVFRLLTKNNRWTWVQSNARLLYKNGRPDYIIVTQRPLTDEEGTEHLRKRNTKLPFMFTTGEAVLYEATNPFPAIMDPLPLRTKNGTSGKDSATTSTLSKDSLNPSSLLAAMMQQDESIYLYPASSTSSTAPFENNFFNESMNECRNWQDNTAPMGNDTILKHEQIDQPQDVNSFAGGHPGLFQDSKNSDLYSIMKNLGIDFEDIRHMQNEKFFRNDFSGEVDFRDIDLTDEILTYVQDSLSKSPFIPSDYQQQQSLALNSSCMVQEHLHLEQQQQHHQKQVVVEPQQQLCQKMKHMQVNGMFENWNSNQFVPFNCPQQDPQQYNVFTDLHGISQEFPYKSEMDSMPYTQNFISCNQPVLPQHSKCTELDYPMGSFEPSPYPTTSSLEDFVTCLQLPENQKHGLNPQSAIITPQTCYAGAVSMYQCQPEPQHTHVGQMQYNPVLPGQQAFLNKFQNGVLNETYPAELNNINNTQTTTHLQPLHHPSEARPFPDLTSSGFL
# protocol: AhR antagonism in U937 cells (Promega P450-Glo assay)
# measurement.parameters: inhibition of 300 μM KYNA response, 24 hrs, CYP1A1 activity readout (Luciferin-CEE), arithmetic mean of pIC50
pIC50: −log10 of the molar value.
property.measured: pIC50

# annotated cases, reported pIC50 shown
[
  {
    "record.smiles": "Cc1nc(-c2ccc(NC(=O)c3ccnn3C)cc2)oc1C",
    "numeric.result": 7.80
  },
  {
    "record.smiles": "Cn1nccc1C(=O)Nc1ccc(-c2nc3ccccc3[nH]2)cc1",
    "numeric.result": 6.80
  }
]

(I) Cn1nccc1C(=O)Nc1ccc(-c2nc3cccc(Cl)c3o2)cc1
(II) COCCn1nccc1C(=O)Nc1ccc(-c2nc3cccc(C)c3o2)cc1
## Task Dear colleague, could you let me know whether I or II has the lower recorded pIC50? Thanks. To answer, give the label that identifies your chosen option.
## Result II
(II: 7.20, I: 7.90)
